Reported values of fraction ligated for individual entries
B1: F1*; the commonest letter at each place (parent)
chain: GAGACCGCAACTGAAAAGTTGTTATCACTTGTCGTAAGACACTTTGGATGGGTTGAAGTTCTGCACGTAGAAGCAAAAGGC

# Variants of: B1
# Procedure Text: fraction ligated after 30 min (ligated reads / total reads); higher = more ligase activity
# Condition Set: with F1*sub RNA substrate (template-directed ligation), 42 °C
Enter the number alone.

Mut	fraction ligated
A37C	0.849
C28A G46C	0.79
C28A A36C	0.806

Noted for G31T A39C : its fraction ligated reads 0.769

Noted for A39T C40A : its fraction ligated reads 0.818

Noted for T25G T49G : its fraction ligated reads 0.779

Noted for T29G G50C : its fraction ligated reads 0.243
